target or test system: UniProt:Q9HCP0
Sequence (Q9HCP0 whole entry): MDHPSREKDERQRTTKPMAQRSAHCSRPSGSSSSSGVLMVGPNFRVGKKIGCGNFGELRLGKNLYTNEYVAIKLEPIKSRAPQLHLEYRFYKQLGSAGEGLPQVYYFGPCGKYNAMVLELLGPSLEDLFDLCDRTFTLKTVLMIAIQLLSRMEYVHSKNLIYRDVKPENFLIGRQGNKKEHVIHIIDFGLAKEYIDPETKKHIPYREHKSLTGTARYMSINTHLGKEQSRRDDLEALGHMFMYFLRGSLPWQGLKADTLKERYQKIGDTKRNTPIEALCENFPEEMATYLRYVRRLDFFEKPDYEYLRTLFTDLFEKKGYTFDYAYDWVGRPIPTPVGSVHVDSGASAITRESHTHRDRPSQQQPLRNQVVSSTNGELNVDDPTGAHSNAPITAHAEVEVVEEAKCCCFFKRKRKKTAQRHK
assay: KINOMEscan competition binding
test conditions: read-out: %Inh CSNK1G1
attribute measured: inhibition at 1 µM (%)
Give bare numbers, in %.

Example results:
>>> observed("O=c1cc(N2CCOCC2)nc2n(Cc3cccc(Cl)c3Cl)c(C3CC3)nn12 [UNC10225469A]")
0
>>> observed("Cn1cc(-c2cnc(N)c3c(-c4ccc5c(c4)CCN5C(=O)Cc4ccccc4)csc23)cn1 [UNC10225012A]")
21
>>> observed("COc1cccc(OC)c1C(=O)Nc1cccc(-c2nn3ccccc3c2-c2ccnc(Nc3cccc(F)c3)n2)c1 [UNC10225310A]")
14
>>> observed("Cc1ccc(NC(=O)Nc2cccc(C(F)(F)F)c2)cc1 [UNC10225187A]")
0

Kindly review the next compound as well.
# CS(=O)(=O)Cc1ccc(Nc2nccc(-c3c(-c4cccc(NC(=O)C5CCCCC5)c4)nn4ncccc34)n2)cc1 [UNC10225159A] with UniProt:Q9HCP0: inhibition at 1 µM is 2
